Source: patent US20080032921A1

# Target Under Test: HLA-DR DRB1*0401 (human)
# Assay Details: competition with 125I-labelled reference peptide on purified HLA-DR
Property: IC50 (nM)
Lab book: enter the figure in nM, no units written.

INSERT INTO assay_data (binder, property, unit_tag, numeric_result) VALUES
  ('SLMLQIGNMISIWVSHS (modifications not checked) [Flu.NA.21 peptide …]', 'IC50', 'nM', 480);

Give the measured IC50 of WAVYSKDNSIRIGSK (modifications not checked) [Flu.NA.77 peptide …] . 1600

Same question for IGNMISIWVSHSIHTG (modifications not checked) [Flu.NA.26 peptide …] please. 925

Can you check NLEYQIGYICSGVFG (modifications not checked) [Flu.NA.289 peptide …] next? 975

And what about the binder YIQMCTELKLSDYEG (modifications not checked) [Flu.NP.43 peptide …] ? 392

Then what about the binder VAVLKYNGIITDTIKSW (modifications not checked) [Flu.NA.183 peptide …] ? 319

Follow-up item: TQGALLNDKHSNGTVKD (modifications not checked) [Flu.NA.115 peptide …] 19000

Repeat with NGTVKDRSPHRTLMS (modifications not checked) [Flu.NA.126 peptide …] 17900

// next record RTFFLTQGALLNDKHS (modifications not checked) [Flu.NA.110 peptide …] 251
